Entry source: patent US6066656A

Biological target: HIV-1 protease (wild-type, WT) (Human immunodeficiency virus type 1 group M subtype B)
Construct: purified HIV-1 protease (wild-type, WT)
Experiment: Inhibition of purified wild-type HIV-1 protease (fluorogenic substrate cleavage), Ki and % inhibition
Format: biochemical
Details: Table III; wild-type HIV protease; read-out: Ki WT
Recorded Ki values for a group of compounds are listed next.

SMILES STRING: Cc1ccc(O)cc1C(=O)N[C@@H](Cc1ccccc1)[C@H](O)[C@H](O)[C@H](Cc1ccccc1)NC(=O)c1cc(O)ccc1C
Ki: 75 nM

SMILES STRING: O=C(N[C@@H](Cc1ccccc1)C[C@H](O)[C@H](Cc1ccccc1)NC(=O)c1cccc(O)c1)c1cccc(O)c1
Ki: 25 nM

SMILES STRING: Nc1cccc(C(=O)N[C@@H](Cc2ccccc2)[C@H](O)[C@H](O)[C@H](Cc2ccccc2)NC(=O)c2cccc(N)c2)c1
Ki: 5 nM

SMILES STRING: O=C(N[C@@H](Cc1ccccc1)[C@H](O)[C@H](O)[C@H](Cc1ccccc1)NC(=O)c1ccc(O)c(O)c1)c1ccc(O)c(O)c1
Ki: 80 nM

SMILES STRING: O=C(N[C@@H](Cc1ccccc1)[C@H](O)[C@H](O)[C@H](Cc1ccccc1)NC(=O)c1cccc(O)c1)c1cccc(O)c1
Ki: 22 nM

###

Target: HIV-1 protease (wild-type, WT) (Human immunodeficiency virus type 1 group M subtype B)
Construct: purified HIV-1 protease (wild-type, WT)
Assay: Inhibition of purified wild-type HIV-1 protease (fluorogenic substrate cleavage), Ki and % inhibition
Type: biochemical
Details: Table II; read-out: Ki
Kindly apply the following: yes (1) if Ki is less than 80 nM, no (0) in every other case.

COMPOUND: Nc1cccc(C(=O)N[C@@H](Cc2ccccc2)[C@H](O)[C@H](O)[C@H](Cc2ccccc2)NC(=O)c2cccc(N)c2)c1
LABEL VALUE: yes (1)
--
COMPOUND: O=C(NC(Cc1ccccc1)C(O)C(O)C(Cc1ccccc1)NC(=O)c1cccc(O)c1)c1cccc(O)c1 (centres unmarked)
LABEL VALUE: yes (1)
--
COMPOUND: Cc1ccc(C(=O)N[C@@H](Cc2ccccc2)[C@H](O)[C@H](O)[C@H](Cc2ccccc2)NC(=O)c2ccc(C)c(O)c2)cc1O
LABEL VALUE: no (0)
--
COMPOUND: Cc1ccc(O)cc1C(=O)N[C@@H](Cc1ccccc1)[C@H](O)[C@H](O)[C@H](Cc1ccccc1)NC(=O)c1cc(O)ccc1C
LABEL VALUE: yes (1)
--
COMPOUND: Nc1cccc(C(=O)N[C@@H](Cc2ccccc2)C[C@H](O)[C@H](Cc2ccccc2)NC(=O)c2cccc(N)c2)c1
LABEL VALUE: yes (1)
